biological target: Microsomal triglyceride transfer protein large subunit (Homo sapiens, UniProt P55157); assay: In vitro inhibition concentration required against triglyceride transfer of human Microsomal triglyceride transfer protein; format: functional; conditions: read-out: I50
Sequence (P55157 whole entry): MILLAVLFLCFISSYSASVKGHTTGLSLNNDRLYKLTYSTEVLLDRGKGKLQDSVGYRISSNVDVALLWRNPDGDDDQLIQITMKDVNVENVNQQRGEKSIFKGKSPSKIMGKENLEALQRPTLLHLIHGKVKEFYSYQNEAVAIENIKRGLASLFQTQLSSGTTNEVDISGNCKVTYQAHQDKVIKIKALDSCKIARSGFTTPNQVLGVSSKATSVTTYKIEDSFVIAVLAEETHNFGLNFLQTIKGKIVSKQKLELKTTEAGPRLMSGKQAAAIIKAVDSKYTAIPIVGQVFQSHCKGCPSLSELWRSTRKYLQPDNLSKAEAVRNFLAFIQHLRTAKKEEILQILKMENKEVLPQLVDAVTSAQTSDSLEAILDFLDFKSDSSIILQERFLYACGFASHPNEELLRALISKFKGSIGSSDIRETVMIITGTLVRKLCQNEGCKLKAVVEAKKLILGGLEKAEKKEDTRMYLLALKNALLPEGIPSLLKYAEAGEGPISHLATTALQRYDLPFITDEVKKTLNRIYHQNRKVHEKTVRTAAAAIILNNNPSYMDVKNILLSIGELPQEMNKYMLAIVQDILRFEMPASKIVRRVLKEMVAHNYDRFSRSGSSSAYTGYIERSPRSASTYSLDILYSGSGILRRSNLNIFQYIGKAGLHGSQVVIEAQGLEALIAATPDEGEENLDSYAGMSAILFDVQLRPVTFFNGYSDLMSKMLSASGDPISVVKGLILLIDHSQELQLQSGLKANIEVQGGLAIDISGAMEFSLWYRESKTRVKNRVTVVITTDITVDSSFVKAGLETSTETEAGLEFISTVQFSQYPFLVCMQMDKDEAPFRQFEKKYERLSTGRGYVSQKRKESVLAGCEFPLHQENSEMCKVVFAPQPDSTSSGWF
Property name: pIC50
Numbers only, as −log10 of the molar value.

Param readout= pIC50; system= Microsomal triglyceride transfer protein large subunit (Homo sapiens, UniProt P55157); entry= O=C(NC1COP(=O)(CCCCC2(C(=O)NCC(F)(F)F)c3ccccc3-c3ccccc32)OC1)OCc1ccccc1 (cis isomer) ; returns value.
6.68

====

target: Microsomal triglyceride transfer protein large subunit (Homo sapiens, UniProt P55157); assay: In vitro inhibitory concentration against human Microsomal triglyceride transfer protein; type: functional
pIC50: −log10 of the molar value.
# label = TRUE if pIC50 >= 8 else FALSE

API: above_or_equal(metric=pIC50, cutoff=8) for item O=C(NC1COP(=O)(CCCCC2(C(=O)NCC(F)(F)F)c3ccccc3-c3ccccc32)OC1)c1ccccc1-c1ccc(C(F)(F)F)cc1 (cis isomer)
FALSE

Next entry: O=C(NC1COP(=O)(CCCCC2(C(=O)NCC(F)(F)F)c3ccccc3-c3ccccc32)OC1)c1ccccc1-c1nc2ccccc2o1 (trans isomer)
TRUE

Next entry: O=C(NC1COP(=O)(CCCCC2(C(=O)NCC(F)(F)F)c3ccccc3-c3ccccc32)OC1)c1ccccc1-c1ccccn1 (trans isomer)
TRUE

# repeat for O=C(N[C@H]1CC[N@+]([O-])(CCCCC2(C(=O)NCC(F)(F)F)c3ccccc3-c3ccccc32)CC1)c1ccccc1-c1ccc(C(F)(F)F)cc1
TRUE

====

target: Microsomal triglyceride transfer protein large subunit (Homo sapiens, UniProt P55157); assay: In vitro inhibitory concentration against human Microsomal triglyceride transfer protein; assay type: functional
Hi there, I'd appreciate the recorded IC50 for every entry that follows.
Give bare numbers, in nM.

Worked set:
>>> readout_number("O=C(NC1COP(=O)(CCCCC2(C(=O)NCC(F)(F)F)c3ccccc3-c3ccccc32)OC1)c1ccccc1 (trans isomer)")
11
>>> readout_number("O=C(NC1COP(=O)(CCCCC2(C(=O)NCC(F)(F)F)c3ccccc3-c3ccccc32)OC1)OCc1ccccc1 (centres undefined)")
14
>>> readout_number("CCCCOP(=O)(CCCCC1(C(=O)NCC(F)(F)F)c2ccccc2-c2ccccc21)OCCCC")
22

// moving on: another record for IC50
So what does the record say about IC50 for O=C(NC1COP(=O)(CCCCC2(C(=O)NCC(F)(F)F)c3ccccc3-c3ccccc32)OC1)c1ccccc1-c1ccc(C(F)(F)F)cc1 (stereo in doubt; 3a) ?
7
